Below, each entry is listed with its recorded pIC50.
Molecular target: Sodium-dependent noradrenaline transporter (Homo sapiens, UniProt P23975)
Sequence (P23975 whole entry): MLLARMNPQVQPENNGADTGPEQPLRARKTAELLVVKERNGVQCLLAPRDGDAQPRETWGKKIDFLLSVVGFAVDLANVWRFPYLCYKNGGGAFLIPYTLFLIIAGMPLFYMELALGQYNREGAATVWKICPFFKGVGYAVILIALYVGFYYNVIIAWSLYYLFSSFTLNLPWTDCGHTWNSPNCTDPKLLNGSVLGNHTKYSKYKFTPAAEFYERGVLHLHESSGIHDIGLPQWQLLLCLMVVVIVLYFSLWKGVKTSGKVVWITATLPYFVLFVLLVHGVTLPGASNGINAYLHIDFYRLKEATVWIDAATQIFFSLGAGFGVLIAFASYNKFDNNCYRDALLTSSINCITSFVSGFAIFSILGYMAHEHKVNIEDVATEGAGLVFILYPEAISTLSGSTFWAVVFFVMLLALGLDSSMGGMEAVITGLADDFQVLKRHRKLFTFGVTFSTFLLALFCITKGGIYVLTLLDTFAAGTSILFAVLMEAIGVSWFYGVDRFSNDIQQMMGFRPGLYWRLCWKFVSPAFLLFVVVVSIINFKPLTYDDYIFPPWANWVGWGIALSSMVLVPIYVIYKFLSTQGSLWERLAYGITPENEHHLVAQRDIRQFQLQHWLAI
Assay: Compound was tested for the inhibition of norepinephrine (NE) reuptake
pIC50: −log10 of the molar value.
Measured attribute: pIC50

| Structure notation | Assay system | Measured attribute | Observed measurement |
| --- | --- | --- | --- |
| Fc1ccc(C(OCCC2CCN(Cc3ccc4ccccc4c3)CC2)c2ccc(F)cc2)cc1 | Sodium-dependent noradrenaline transporter (Homo sapiens, UniProt P23975) | pIC50 | 7.03 |
| Fc1ccc(C(OCCC2CCN(Cc3cc4ccccc4s3)CC2)c2ccc(F)cc2)cc1 | Sodium-dependent noradrenaline transporter (Homo sapiens, UniProt P23975) | pIC50 | 6.59 |

All figures here come from ChEMBL document CHEMBL1136002.
